# System: P388 leukemia ip, CD2F1 mice, survival T/C
# procedure.summary: NCI In Vivo Anticancer Drug Screen. Data for tumor model P388 Leukemia (intraperitoneal) in CD2F1 (CDF1) mice
# reported.conditions: endpoint: median survival time; dose: 100.0 mg/kg/injection; schedule: Q01DX005 (ip); vehicle: saline with Tween-80; higher = longer survival
Inconclusive results and toxic doses are left out.
Overview of reported T/C across a group of molecules:

>>> experimental_result("CC(=O)OC1(C)CC1(C)C (configuration not stated)")
"98 % of control"
>>> experimental_result("Nc1cccc2c1C(O)c1ccccc1-2 (configuration not stated)")
"99 % of control"
>>> experimental_result("COC(=O)c1c2cccc(C)c2nc2c(C)cccc12")
"107 % of control"
>>> experimental_result("CCCCCCN(CCCCCC)CC(O)c1ccc(Cl)c2ccccc12 (configuration not stated)")
"101 % of control"
>>> experimental_result("O=C1CCSC(=O)N1c1ccccc1")
"100 % of control"
>>> experimental_result("O/N=C(Sc1ccccn1)/C(=N/O)Sc1ccccn1")
"109 % of control"

GET T/C | system: P388 leukemia ip, CD2F1 mice, survival T/C | item: C=CC(c1ccccc1)c1cc2c(cc1OC)OCO2 (configuration not stated)
96 % of control

###

# Test system: P388 leukemia ip, CD2F1 mice, survival T/C
# procedure.summary: NCI In Vivo Anticancer Drug Screen. Data for tumor model P388 Leukemia (intraperitoneal) in CD2F1 (CDF1) mice
# reported.conditions: endpoint: median survival time; dose: 200.0 mg/kg/injection; schedule: Q01DX005 (ip); vehicle: saline with Tween-80; higher = longer survival
Inconclusive results and toxic doses are left out. Square brackets hold non-standard residues; d marks the D form. Peptide text beside a SMILES is read from it. * marks the point of attachment. ξ: configuration not given here. Cbz = O=C(OCc1ccccc1)*; ξP = O=C(O)C1CCCN1
Overview of reported T/C across a group of molecules:

Please review the following examples before continuing.
>>> experimental_result("CC(C)NCC(O)COc1c2ccccc2nc2ccccc12 (stereo unspecified)")
"102 % of control"
>>> experimental_result("Oc1c(N=Nc2nn[nH]n2)ccc2ccccc12")
"99 % of control"
>>> experimental_result("Fc1cccc(N=Nc2c(-c3ccccc3)nn(C(=S)S)c2-c2ccccc2)c1")
"106 % of control"
>>> experimental_result("Cc1cc(C)c(C#N)c(SCC(=O)c2sc3c(C#N)c(C)cc(C)[n+]3c2[O-])n1")
"95 % of control"
>>> experimental_result("CCOC(=O)N1c2ccccc2C(c2ccccc2)=NC1(C#N)CC (stereo unspecified)")
"97 % of control"
>>> experimental_result("O=C(O)CNC(=O)C1CCCN1C(=O)OCc1ccccc1 (stereo unspecified) (Cbz-[ξP]-Gly-OH)")
"91 % of control"
>>> experimental_result("CN(CO)N=Nc1ccc(C(F)(F)F)cc1")
"113 % of control"
>>> experimental_result("O=S1(=O)N=C(N2CCCCC2)c2ccccc21")
"97 % of control"
>>> experimental_result("O=C(/C(=C\\c1ccc(F)cc1)S(=O)(=O)c1ccc(F)cc1)c1ccccc1")
"103 % of control"
>>> experimental_result("Cc1ccc(N=NC2=C3Sc4ccccc4N=C2N(c2ccc(Br)cc2)C(=S)N3c2ccc(Cl)cc2)cc1")
"88 % of control"

Moving on to another molecule below.
Using known records, supply T/C for COc1ccccc1C1c2cc3c(cc2OC(C)(O)C1C)OCO3 (stereo unspecified)
96 % of control
